Origin of values: patent US20230339890A1

Biological target: Recombinant human CYP51A1 (lanosterol-14a-demethylase) (Homo sapiens (Human), UniProt Q16850)
Sequence (Q16850 whole entry): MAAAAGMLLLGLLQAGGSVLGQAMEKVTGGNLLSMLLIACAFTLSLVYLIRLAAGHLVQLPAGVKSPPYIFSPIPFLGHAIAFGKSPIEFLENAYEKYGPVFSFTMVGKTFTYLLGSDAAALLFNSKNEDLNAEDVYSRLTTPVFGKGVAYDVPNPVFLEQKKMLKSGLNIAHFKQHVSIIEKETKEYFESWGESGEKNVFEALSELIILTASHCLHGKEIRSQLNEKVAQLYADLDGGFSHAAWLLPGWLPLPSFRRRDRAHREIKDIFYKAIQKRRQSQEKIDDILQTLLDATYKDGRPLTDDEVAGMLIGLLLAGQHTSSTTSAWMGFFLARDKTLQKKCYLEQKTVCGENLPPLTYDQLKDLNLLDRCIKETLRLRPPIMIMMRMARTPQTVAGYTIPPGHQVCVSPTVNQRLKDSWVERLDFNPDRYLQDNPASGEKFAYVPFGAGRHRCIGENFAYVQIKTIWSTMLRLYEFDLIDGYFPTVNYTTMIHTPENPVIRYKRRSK
Test: Inhibition of CYP51A1, fluorescent substrate BOMCC
Settings: recombinant human CYP51A1 coexpressed with CYP reductase in bacterial membranes, 8-point concentration-response, read-out: CYP51 IC50
pIC50: −log10 of the molar value.
Reported values of pIC50 for individual entries

These solved cases illustrate the format of a correct answer.
{"columns": ["molecule", "pIC50"],
 "data": [
  ["CCCN(CC(O)c1cccnc1)C(=O)Cc1ccc2ccccc2c1 (centres unmarked)", "≥ 7.00"],
  ["CCCN(CC(O)c1ccc(OC)nc1)C(=O)Cc1ccc(Cl)c(Cl)c1 (centres unmarked)", "< 6.00"],
  ["CCCN(CC(O)c1cnccc1N)C(=O)Cc1ccc(C(F)(F)F)nc1 (centres unmarked)", "≥ 7.00"],
  ["CCCN(CC(O)c1cncnc1)C(=O)Cc1ccc(Cl)c(Cl)c1 (centres unmarked)", "< 6.00"]
]}

// next item, pIC50 requested
Incoming: # return recorded pIC50 for entry CCCN(CC(O)c1cccnn1)C(=O)Cc1ccc(Cl)c(Cl)c1 (single isomer, unassigned) [compound 36]
Outgoing: < 6.00

---

Reported values of IC50 for individual entries
Molecular target: Recombinant human CYP51A1 (lanosterol-14a-demethylase) (Homo sapiens (Human))
Experiment: Inhibition of CYP51A1, fluorescent substrate BOMCC
Conditions: recombinant human CYP51A1 coexpressed with CYP reductase in bacterial membranes, 8-point concentration-response, read-out: CYP51 IC50
Source text: Method: Recombinant human CYP51A1 (lanosterol-14a-demethylase) enzyme was coexpressed with CYP reductase in bacterial membranes and the fluorescent substrate BOMCC (a nonnatural substrate that causes increases in fluorescence upon CYP51A1-dependent demethylation) was used to obtain 8-point dose concentration-response curves for each compound.

{"columns": ["compound", "property.measured", "experimental.value"],
 "data": [
  ["CCC(=O)N(CCc1ccc2ccccc2c1)CC(O)c1cccnc1 (centres unmarked) [compound 3]", "IC50", "100 to 1000 nM"],
  ["CCCN(C[C@@H](O)c1cccnc1)C(=O)Cc1ccc(Cl)c(C#N)c1 [compound 24]", "IC50", "100 to 1000 nM"],
  ["CCCN(C[C@@H](O)c1cccnc1)C(=O)Cc1ccc2ccccc2c1 [compound 7]", "IC50", "≤ 100 nM"],
  ["CCCN(C[C@@H](O)c1cccnc1)C(=O)Cc1ccc(C(F)(F)F)cn1 [compound 106]", "IC50", "100 to 1000 nM"],
  ["CC(C)(C)OC(=O)NC1CCC(CN(C[C@@H](O)c2cccnc2)C(=O)Cc2ccc(C(F)(F)F)nc2)CC1 (some centres unmarked) [compound 145]", "IC50", "100 to 1000 nM"],
  ["CCCN(CC(O)c1cncc(Br)c1)C(=O)Cc1ccc(C(F)(F)F)nc1 (centres unmarked) [compound 46]", "IC50", "> 1000 nM"],
  ["CCCN(CC(O)c1cccnc1)C(=O)Cc1ccc(Cl)c(C)n1 (centres unmarked) [compound 63]", "IC50", "> 1000 nM"]
]}

Incoming: # return recorded IC50 for entry CCCN(C[C@@H](O)c1cccnc1)C(=O)Cc1ccc(OC(F)(F)F)c(Cl)c1 [compound 21]
Outgoing: ≤ 100 nM

---

Molecular target: Recombinant human CYP51A1 (lanosterol-14a-demethylase) (Homo sapiens (Human), UniProt Q16850)
Test: Inhibition of CYP51A1, fluorescent substrate BOMCC
Details: recombinant human CYP51A1 coexpressed with CYP reductase in bacterial membranes, 8-point concentration-response, read-out: CYP51 IC50
From the text: Method: Recombinant human CYP51A1 (lanosterol-14a-demethylase) enzyme was coexpressed with CYP reductase in bacterial membranes and the fluorescent substrate BOMCC (a nonnatural substrate that causes increases in fluorescence upon CYP51A1-dependent demethylation) was used to obtain 8-point dose concentration-response curves for each compound.
property.measured: IC50

These solved cases illustrate the format of a correct answer.
{"columns": ["molecule", "experimental.value"],
 "data": [
  ["CCCN(CC(O)c1cccnc1)S(=O)(=O)Cc1ccc(Cl)c(Cl)c1 (centres unmarked)", "> 1000 nM"],
  ["Cc1ccncc1C(O)CN(CC1COC1)C(=O)Cc1ccc(C(F)(F)F)nc1 (centres unmarked) [compound 89]", "> 1000 nM"],
  ["CCCN(CC(O)c1cncc(Cl)c1)C(=O)Cc1ccc(Cl)c(Cl)c1 (centres unmarked)", "> 1000 nM"],
  ["CCCN(C[C@@H](O)c1cccnc1)C(=O)Cc1ccc(C#N)nc1", "> 1000 nM"]
]}

// next item, IC50 requested
Incoming: # return recorded IC50 for entry CCCN(CC(O)c1cccnc1)C(=O)Cc1ccc(Cl)cc1F (centres unmarked)
Outgoing: ≤ 100 nM
